- EXPERIMENTAL SYSTEM: human melanocortin 4 receptor (human, UniProt P32245 1-332)
- Sequence (P32245 whole entry): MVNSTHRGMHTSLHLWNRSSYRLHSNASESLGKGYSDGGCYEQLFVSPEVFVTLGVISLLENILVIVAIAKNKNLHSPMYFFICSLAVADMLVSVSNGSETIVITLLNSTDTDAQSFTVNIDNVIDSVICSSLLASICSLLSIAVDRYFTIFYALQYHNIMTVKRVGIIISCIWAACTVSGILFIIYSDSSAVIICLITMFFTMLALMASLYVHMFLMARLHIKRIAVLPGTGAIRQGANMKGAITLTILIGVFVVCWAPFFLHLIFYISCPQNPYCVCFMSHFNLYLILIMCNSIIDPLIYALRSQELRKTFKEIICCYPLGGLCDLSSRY
- ASSAY PROTOCOL: cell-based or functional assay
Starred links: 1 amine or outer side, 2 acyl side, 3 side chain; linkers in the order of their positions; H or OH if unused. Non-standard residues stand in square brackets, D forms with d. No end group written: not given here. *: point of attachment. Thr(Bzl) = O-benzyl-threonine, C[C@@H](OCc1ccccc1)[C@H](N[*:1])C(=O)[*:2]; Ser(Bzl) = O-benzyl-serine, O=C([C@H](COCc1ccccc1)N[*:1])[*:2]; dPhe(4-Cl) = N[C@H](Cc1ccc(Cl)cc1)C(=O)O; Heptanoyl = CCCCCCC(=O)*; Ahp = NCCCCCCC(=O)O
QUANTITY NAME: intrinsic activity, normal system (cAMP)

According to the records, this binder Heptanoyl-[Thr(Bzl)][dPhe(4-Cl)]RW-NH2 (SMILES CCCCCCC(=O)N[C@H](C(=O)N[C@H](Cc1ccc(Cl)cc1)C(=O)N[C@@H](CCCNC(=N)N)C(=O)N[C@@H](Cc1c[nH]c2ccccc12)C(N)=O)[C@@H](C)OCc1ccccc1, also called Compound No. 23) [Heptanoyl-Thr(Bzl)-D-Phe(4-Cl)-Arg-Trp-NH2] displays intrinsic activity, normal system (cAMP) of 0.4

For this binder ( [Ahp][Ser(Bzl)][dPhe(4-Cl)]RWD-NH2 (N-terminus assumed; SMILES N=C(N)NCCC[C@H](NC(=O)[C@@H](Cc1ccc(Cl)cc1)NC(=O)[C@H](COCc1ccccc1)NC(=O)CCCCCCN)C(=O)N[C@@H](Cc1c[nH]c2ccccc12)C(=O)N[C@@H](CC(=O)O)C(N)=O, also called Compound No. 13) [NH2-(CH2)6-C(=O)-Ser(Bzl)-D-Phe(4-Cl)-Arg-Trp-Asp-NH2] ), measured intrinsic activity, normal system (cAMP) is 0.5

get_value(item= XDHFRXK (N-terminal acetyl; Nle at 1 (X); D-Phe at 4; Nal 1 at 6 (X); cyclo(Asp 2 to Lys 7); C-terminal ethylamide -NH-CH2-CH3, also called Compound No. 39) [Ac-Nle-cyclo(-Asp-His-D-Phe-Arg-Nal 1-Lys)-NH-CH2-CH3] , readout=intrinsic activity, normal system (cAMP)) returns 0.6

Form: binder = XDHFRXK (N-terminal acetyl; Nle at 1 (X); D-Phe at 4; Nal 1 at 6 (X); cyclo(Asp 2 to Lys 7); C-terminal dimethylamide -N(CH3)2, also called Compound No. 37) [Ac-Nle-cyclo(-Asp-His-D-Phe-Arg-Nal 1-Lys)-N(CH3)2] ; intrinsic activity, normal system (cAMP) = 0.7

Entry [Ahp][Ser(Bzl)][dPhe(4-Cl)]RWA-NH2 (N-terminus assumed; SMILES C[C@H](NC(=O)[C@H](Cc1c[nH]c2ccccc12)NC(=O)[C@H](CCCNC(=N)N)NC(=O)[C@@H](Cc1ccc(Cl)cc1)NC(=O)[C@H](COCc1ccccc1)NC(=O)CCCCCCN)C(N)=O, also called Compound No. 15) [NH2-(CH2)6-C(=O)-Ser(Bzl)-D-Phe(4-Cl)-Arg-Trp-Ala-NH2] , intrinsic activity, normal system (cAMP) reported as < 0.1

Input [Ahp][Ser(Bzl)][dPhe(4-Cl)]RWDF-NH2 (N-terminus assumed; SMILES N=C(N)NCCC[C@H](NC(=O)[C@@H](Cc1ccc(Cl)cc1)NC(=O)[C@H](COCc1ccccc1)NC(=O)CCCCCCN)C(=O)N[C@@H](Cc1c[nH]c2ccccc12)C(=O)N[C@@H](CC(=O)O)C(=O)N[C@@H](Cc1ccccc1)C(N)=O, also called Compound No. 14) [NH2-(CH2)6-C(=O)-Ser(Bzl)-D-Phe(4-Cl)-Arg-Trp-Asp-Phe-NH2] . Output intrinsic activity, normal system (cAMP): 0.5
